# measurement_target: Serine/threonine-protein kinase pim-2 (Homo sapiens)
# Sequence (Q9P1W9 whole entry, looked up): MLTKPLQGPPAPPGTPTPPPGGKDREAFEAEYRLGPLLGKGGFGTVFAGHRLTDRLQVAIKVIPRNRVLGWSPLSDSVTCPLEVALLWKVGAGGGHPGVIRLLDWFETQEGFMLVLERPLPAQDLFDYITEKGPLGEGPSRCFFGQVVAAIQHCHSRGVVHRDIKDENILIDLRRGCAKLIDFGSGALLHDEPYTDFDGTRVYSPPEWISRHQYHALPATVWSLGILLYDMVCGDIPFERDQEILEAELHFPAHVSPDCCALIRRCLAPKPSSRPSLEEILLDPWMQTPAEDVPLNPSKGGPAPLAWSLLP

[
  {
    "molecule": "Ic1cccc(CSc2nnc(-c3ccncc3)o2)c1",
    "endpoint_unit": "°C",
    "ΔTm": 0.1
  },
  {
    "molecule": "CCOc1cc2ncnc(Nc3cccc(Br)c3)c2cc1OCC",
    "endpoint_unit": "°C",
    "ΔTm": 1.1
  },
  {
    "molecule": "NCCNc1ncc(C(N)=O)c(Nc2cccc(C(F)(F)F)c2)n1",
    "endpoint_unit": "°C",
    "ΔTm": 0.7
  },
  {
    "molecule": "O=C1NC(=O)C(c2c[nH]c3ccccc23)=C1c1c[nH]c2ccccc12",
    "endpoint_unit": "°C",
    "ΔTm": 4
  },
  {
    "molecule": "O=c1c(-c2ccc(F)cc2)c(-c2ccncc2)[nH]n1-c1ccc(Cl)cc1",
    "endpoint_unit": "°C",
    "ΔTm": 0.2
  },
  {
    "molecule": "C#Cc1cccc(Nc2ncnc3cc(OCCOC)c(OCCOC)cc23)c1",
    "endpoint_unit": "°C",
    "ΔTm": 0
  },
  {
    "molecule": "O=C1C(Cl)=C(N2C(=O)CCC2=O)C(=O)c2ccccc21",
    "endpoint_unit": "°C",
    "ΔTm": -4.1
  },
  {
    "molecule": "CN(C)c1ncnc2nc[nH]c12 [DIMETHYLADENINE]",
    "endpoint_unit": "°C",
    "ΔTm": 0.3
  },
  {
    "molecule": "OC[C@H]1O[C@@H](n2cnc3cc(Cl)c(Cl)cc32)[C@H](O)[C@@H]1O",
    "endpoint_unit": "°C",
    "ΔTm": 2.6
  }
]
